# Tested on: mPer2Luc MEF
# measurement.protocol: PER2::LUC luminescence relative to vehicle control (fold of vehicle); higher = higher PER2::LUC reporter signal
# condition.info: time after treatment: 30-hour; concentration: 0.37μM
For each of the molecules below, state its PER2::LUC luminescence.
Simply state the number, no unit and no words.

Request: Kindly indicate its recorded PER2::LUC luminescence. Item: CN1CCN(C2CCC(n3cc(-c4ccc(Oc5ccccc5)cc4)c4c(N)ncnc43)CC2)CC1 (centres undefined)
Result: 0.477

Request: Kindly indicate its recorded PER2::LUC luminescence. Item: CNC(=O)c1cc(Oc2ccc(NC(=O)Nc3cc(C(C)(C)C)nn3-c3ccc4ncccc4c3)c(F)c2)ccn1 [DCC-2036]
Result: 1.81

Request: Kindly indicate its recorded PER2::LUC luminescence. Item: O=c1cc(N2CCOCC2)oc2c(-c3cccc4c3sc3ccccc34)cccc12
Result: 0.931

Request: Kindly indicate its recorded PER2::LUC luminescence. Item: Cc1ccc(NC(=O)c2cccc(N(C)C)c2)cc1NC(=O)c1ccc(O)cc1
Result: 0.932

Request: Kindly indicate its recorded PER2::LUC luminescence. Item: Cc1cc2sc(NC(=O)Cc3ccccc3)nc2cc1Cl [LH-846]
Result: 1.53

Request: Kindly indicate its recorded PER2::LUC luminescence. Item: Nc1nccc(Oc2ccc(NC(=O)c3c[nH]cc(-c4ccc(F)cc4)c3=O)cc2F)c1Cl
Result: 1.03

Request: Kindly indicate its recorded PER2::LUC luminescence. Item: CN(C)C/C=C/C(=O)Nc1cc2c(Nc3ccc(F)c(Cl)c3)ncnc2cc1O[C@H]1CCOC1 [BIBW2992 DiMaleate]
Result: 0.696

Request: Kindly indicate its recorded PER2::LUC luminescence. Item: O=c1c(-c2ccc(O)cc2)coc2cc(O)ccc12 [Daidzein]
Result: 1.04

Request: Kindly indicate its recorded PER2::LUC luminescence. Item: O=C(O)CCCCC(CCSCc1ccccc1)SCc1ccccc1 (centres undefined) [CPI-613]
Result: 0.999
